test: Cytotoxicity, MTS viability assay; type: cell-based, mouse; conditions: mouse, 3T3 fibroblasts; read-out: 3T3 (cytotoxicity EC50)
API: label(entry) gives 1 (yes) if the entry's EC50 is strictly smaller than 200 µM; on equality or larger values it gives 0 (no).

Some solved cases for reference:
smiles_str | assigned_label
N=C(N)NCCCn1c2cc(-c3ccc(CCNC(=N)N)c(CCNC(=N)N)c3)ccc2c2ccc(-c3ccc(CCNC(=N)N)c(CCNC(=N)N)c3)cc21 | 1 (yes)
NCCCn1c2cc(Br)ccc2c2ccc(Br)cc21 | 1 (yes)
NCCCn1c2cc(-c3cccc(O)c3)ccc2c2ccc(-c3cccc(O)c3)cc21 | 1 (yes)
NCCCOc1cc(OCCCN)cc(-c2ccc3c4ccc(Br)cc4n(CCCN)c3c2)c1 | 0 (no)
NCCCc1cccc(-c2ccc3c4ccc(-c5cccc(CCCN)c5)cc4n(CCN)c3c2)c1 | 1 (yes)
N=C(N)NCCCCCc1cccc(-c2ccc3c4ccc(-c5cccc(CCCNC(=N)N)c5)cc4n(CCCNC(=N)N)c3c2)c1 | 1 (yes)

Query :: Identify whether the compound NCCCn1c2cc(-c3cccc(N)c3)ccc2c2ccc(-c3cccc(N)c3)cc21 records EC50 below 200 µM.
Result :: 1 (yes)

Query :: Field: below-cutoff. Rule: recorded EC50 strictly less than 200 µM. Subject: NCCCn1c2cc(-c3cccc(CCN)c3)ccc2c2ccc(-c3cccc(CCN)c3)cc21
Result :: 1 (yes)

Query :: Does this compound meet the criterion EC50 < 200 µM? NCCCOc1ccc(-c2ccc3c4ccc(-c5ccc(OCCCN)cc5)cc4n(CCCN)c3c2)cc1
Result :: 1 (yes)

* * *

Assay: Cytotoxicity, MTS viability assay
Type: cell-based, mouse
Details: mouse, 3T3 fibroblasts; read-out: 3T3 (cytotoxicity EC50)
Procedure: Candida IC50s were determined by OD600 and fluorescence from vegetative cells and by MTS viability assay in the hyphal state. MICs were determined using a broth microdilution assay under standard CLSI conditions Bacteria strains: E. coli 25922 (EC), S. aureus 27660 (SA), E. faecalis 29212 (EF), P. aeruginosa 10145 (PA), and K. pneumoniae 13883 (KP). […] Candida IC50s (CA) were determined by OD600 and fluorescence from vegetative cells. […]
Reported values of EC50 for individual entries
Write the number in µM without appending the unit.

Example cases with answers are listed next.
compound | experimental_value
NCCCOc1cccc(-c2ccc3c4ccc(-c5cccc(OCCCN)c5)cc4n(CCCN)c3c2)c1 [Compound 150] | 54
NCCCn1c2cc(-c3cccc(OCCN)c3)ccc2c2ccc(-c3cccc(OCCN)c3)cc21 [Compound 151] | 56
N=C(N)NCCCOc1cc(OCCCNC(=N)N)cc(-c2ccc3c(c2)c2cc(-c4cc(OCCCNC(=N)N)cc(OCCCNC(=N)N)c4)ccc2n3CCCNC(=N)N)c1 [Compound 163] | 31

With those in mind, consider the next compound.
Query :: # EC50 lookup, item N=C(N)NCCCn1c2cc(-c3cc(CCNC(=N)N)cc(CCNC(=N)N)c3)ccc2c2ccc(-c3cc(CCNC(=N)N)cc(CCNC(=N)N)c3)cc21 [Compound 162]
Result :: 49

* * *

// values below are MIC; system is S. salivarius
Please reply with the bare figure in µg/mL and do not write the unit itself.

Query :: What value of MIC has been reported for the following compound? N=C(N)NCCc1cccc(-c2ccc(-c3cccc(CCNC(=N)N)c3)s2)c1 [Compound 185]
Result :: 8

Query :: Which MIC is listed for N=C(N)NCCc1cccc(-c2ccc(-c3cccc(CCNC(=N)N)c3)cc2)c1 [Compound 186] ?
Result :: 8

Query :: Suppose we examine the compound N=C(N)N1CCN(c2ccc(-c3cc(-c4ccc(N5CCN(C(=N)N)CC5)cc4)ncn3)cc2)CC1 [Compound 136] ; what MIC value has been reported?
Result :: 16

* * *

assay: Cytotoxicity, MTS viability assay; type: cell-based, mouse; conditions: mouse, 3T3 fibroblasts; Table 6; read-out: Cytotoxicity EC50 Mouse 3T3
measure_name: pEC50
Expect pEC50 as a plain number equal to -log10 of the molar concentration.

smiles_str | pEC50
N=C(N)N1CCN(c2ccc(-c3cc(-c4ccc(N5CCN(C(=N)N)CC5)cc4)ncn3)cc2)CC1 | 3.51

Field: next compound
Query :: Find the recorded pEC50 belonging to COc1cc(SCCNC(=N)N)c(C(F)(F)F)cc1NC(=O)c1cc(C(=O)Nc2cc(C(F)(F)F)c(SCCNC(=N)N)cc2OC)nc(SCCNC(=N)N)n1 and report it.
Result :: 3.32

* * *

Quick list: EC50 per entry.
assay: Cytotoxicity, MTS viability assay; format: cell-based, human; conditions: human, HepG2 cells (transformed liver); Table 6; read-out: Cytotoxicity EC50 Human HepG2
The reply should contain only the number, in µM.

molecule | value_units | experimental_value
COc1ccc(CNC(=N)N)cc1NC(=O)c1cc(C(=O)Nc2cc(CNC(=N)N)ccc2OC)c(OCCC(C)C)cc1OCCC(C)C [Cmpd 184] | µM | 155

Turning now to a further molecule:
Query :: Fill in the blank: the reported EC50 of N=C(N)N1CCN(c2ccc(-c3cc(-c4ccc(N5CCN(C(=N)N)CC5)cc4)ncn3)cc2)CC1 [Compound 136] is ____.
Result :: 453

* * *

System: C. glabrata (ATCC 90030)
Assay: Yeast MIC
Format: cell-based
Conditions: Table 5
Description: Candida MIC assays were determined in accordance with CLSI guidelines M27-A3 using a clinically isolated C. albicans strain, GDH2346.50% human serum was added to determine activity in the presence of serum. CLSI conditions Bacteria strains: clinical isolates; yeast strains: C. dubliniensis (NCPF3949), C. glabrata (ATCC 90030), C. krusei (ATCC 6258), C. parapsilosis (ATCC 22019), and C. tropicalis (ATCC 750). […]
Catalogue of MIC C. glabrata values
Kindly provide the numeric value in µg/mL only, without the unit symbol.

Observe how each entry below is paired with its result.
smiles_str | MIC C. glabrata (µg/mL)
N=C(N)NCCc1cccc(-c2ccc(-c3cccc(CCNC(=N)N)c3)o2)c1 | 4
N=C(N)NCCc1cccc(-c2cnc(-c3cccc(CCNC(=N)N)c3)s2)c1 | 4
NCCCOc1cc(OCCCN)cc(-c2ccc3c(c2)c2cc(-c4cc(OCCCN)cc(OCCCN)c4)ccc2n3CCCN)c1 | 2

Next item in the queue.
Query :: Give its MIC C. glabrata value. Item: N=C(N)N1CCN(c2ccc(-c3cc(-c4ccc(N5CCN(C(=N)N)CC5)cc4)ncn3)cc2)CC1
Result :: 4

* * *

// values below are reported pEC50
assay: Cytotoxicity, MTS viability assay; assay type: cell-based, human; details: human, HepG2 cells (transformed liver); read-out: HepG2 (cytotoxicity EC50)
In plain terms, pEC50 is the concentration in mol/L turned into minus its base-10 logarithm.

Here are 4 molecules together with their reported answers.
smiles_str | pEC50
NCCCn1c2cc(-c3cc(CCN)cc(CCN)c3)ccc2c2ccc(-c3cc(CCN)cc(CCN)c3)cc21 | 3.33
N=C(N)NCCCn1c2cc(-c3ccc(CCNC(=N)N)c(CCNC(=N)N)c3)ccc2c2ccc(-c3ccc(CCNC(=N)N)c(CCNC(=N)N)c3)cc21 | 4.55
NCCCOc1cc(OCCCN)cc(-c2ccc3c4ccc(-c5cc(OCCCN)cc(OCCCN)c5)cc4n(CCCN)c3c2)c1 | 3.85
NCCCn1c2cc(-c3cccc(O)c3)ccc2c2ccc(-c3cccc(O)c3)cc21 | 4.70

Query :: Given the entry NCCCn1c2cc(Br)ccc2c2ccc(Br)cc21 , report its measured pEC50.
Result :: 4.21

Query :: For NCCCOc1cc(OCCCN)cc(-c2ccc3c(c2)c2ccccc2n3CCCN)c1 , what is its reported pEC50?
Result :: 3.10

* * *

# maps each entry to its MIC
Tested on: P. aeruginosa 10145
Assay: Bacterial MIC, broth microdilution, CLSI
Format: cell-based
Settings: Pseudomonas aeruginosa, 10145; read-out: PA (MIC)
Experimental: Candida IC50s were determined by OD600 and fluorescence from vegetative cells and by MTS viability assay in the hyphal state. MICs were determined using a broth microdilution assay under standard CLSI conditions Bacteria strains: E. coli 25922 (EC), S. aureus 27660 (SA), E. faecalis 29212 (EF), P. aeruginosa 10145 (PA), and K. pneumoniae 13883 (KP). […] Candida IC50s (CA) were determined by OD600 and fluorescence from vegetative cells. […]
Express the result in µg/mL but write the number alone.

A selection of reference data follows.
smiles_str | value_units | MIC
NCCCOc1cc(OCCCN)cc(-c2ccc3c4ccc(-c5cc(OCCCN)cc(OCCCN)c5)cc4n(CCCN)c3c2)c1 | µg/mL | 50
CCn1c2ccc(-c3cc(OCCCN)cc(OCCCN)c3)cc2c2cc(-c3cc(OCCCN)cc(OCCCN)c3)ccc21 | µg/mL | 6.25
N=C(N)NCCCn1c2cc(-c3ccc(CCNC(=N)N)c(CCNC(=N)N)c3)ccc2c2ccc(-c3ccc(CCNC(=N)N)c(CCNC(=N)N)c3)cc21 | µg/mL | 6.25
N=C(N)NCCCCCc1cccc(-c2ccc3c4ccc(-c5cccc(CCCNC(=N)N)c5)cc4n(CCCNC(=N)N)c3c2)c1 | µg/mL | 25

Now turn to the next compound.
Query :: Field request: MIC | item: NCCCn1c2cc(-c3cccc(N)c3)ccc2c2ccc(-c3cccc(N)c3)cc21
Result :: 100
